Target: human LPAR1 (Homo sapiens)
Construct: expressed in transfected cells
Sequence (Q92633 whole entry): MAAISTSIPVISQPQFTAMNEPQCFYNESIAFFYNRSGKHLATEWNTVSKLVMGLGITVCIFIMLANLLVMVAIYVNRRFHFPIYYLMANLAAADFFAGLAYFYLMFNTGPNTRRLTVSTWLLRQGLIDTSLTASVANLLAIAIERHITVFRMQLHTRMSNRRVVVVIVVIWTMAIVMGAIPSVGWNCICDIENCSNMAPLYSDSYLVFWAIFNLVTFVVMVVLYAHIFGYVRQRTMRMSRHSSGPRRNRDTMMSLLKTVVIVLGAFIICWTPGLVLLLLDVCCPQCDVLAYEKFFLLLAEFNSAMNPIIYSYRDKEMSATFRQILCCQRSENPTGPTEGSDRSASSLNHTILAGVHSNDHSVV
Assay: Test Example 1: antagonism against response of LPA-induced increase in intracellular Ca2+ concentration in RH7777 cells stably expressing human LPAR1
Format: cell-based
Settings: RH7777 cells stably expressing human LPAR1; Fluo-4 fluorescence, FDSS6000; read-out: IC50 value (concentration producing 50% antagonism against response of LPA-induced increase in intracellular Ca2+ concentration) (converted)
Rule for this label: true means IC50 is less than 4 nM; false means IC50 is at least 4 nM.

compound="COc1cc([C@@H](C)N(CCO[C@@H](C)c2ccccc2)C(=O)NC2(C(=O)O)CC(OC)C2)cc(OC)c1C(C)=O (stereo partly drawn)" assigned_class=false
compound=CCOc1cc([C@H](C)N(CCCCc2ccccc2)C(=O)NC2(C(=O)O)Cc3ccccc3C2)cc(OCC)c1C assigned_class=false
compound="CCOc1cc([C@@H](C)N(CCO[C@@H](C)c2ccccc2)C(=O)N[C@]2(C(=O)O)C[C@H](OC)C2)c(Cl)c(OCC)c1C(C)O (single isomer, unassigned) [Example 5-59]" assigned_class=false
compound="COc1cc(C(C)N(CCO[C@@H](C)c2ccccc2)C(=O)NC2(C(=O)O)CC(F)(F)C2)c(Cl)c(OC)c1C1CC1 (stereo partly drawn)" assigned_class=true
compound=CCOc1c(C(C)=O)ccc([C@@H](C)N(CCO[C@@H](C)c2ccccc2)C(=O)NC2(C(=O)O)CC(F)(F)C2)c1C assigned_class=true
compound="CCOc1cc([C@@H](C)N(CCOCc2ccccc2)C(=O)NC2(C(=O)O)CC(OC)C2)cc(OCC)c1C(C)=O (stereo partly drawn) [Example 4-108]" assigned_class=true
compound="CCOc1cc([C@@H](C)N(CCCC(F)(F)c2ccccc2)C(=O)NC2(C(=O)O)CC(OC)C2)cc(OCC)c1C1CC1 (stereo partly drawn)" assigned_class=true
compound="CCOc1cc(C(C)N(CCOCc2ccccc2)C(=O)NC2(C(=O)O)CCC2)c(C)c(OCC)c1C(C)=O (stereo not drawn)" assigned_class=true
compound="CCOc1cc(C(C)N(CCOC(C)c2ccccc2)C(=O)NC2(C(=O)O)CC(OC)C2)c(Cl)c(OCC)c1C(C)=O (stereo not drawn)" assigned_class=true
compound="COc1cc(C(C)N(CCCCc2ccccc2)C(=O)NC2(C(=O)O)CC(F)(F)C2)nc(OC)n1 (stereo not drawn)" assigned_class=false
compound="CCCOc1cc(OCC)cc(C(C)N(CCCCc2ccccc2)C(=O)NC2(C(=O)O)CC(F)(F)C2)c1 (stereo not drawn)" assigned_class=false
compound="CCOc1c(C(C)O)ccc([C@@H](C)N(CCCCc2ccccc2)C(=O)NC2(C(=O)O)CC(F)(F)C2)c1C (single isomer, unassigned) [Example 1-79]" assigned_class=false
compound=CCOc1cc([C@@H](C)N(CCCCc2ccccc2)C(=O)NC2(CC(=O)O)CC2)cc(OCC)c1C(C)=O assigned_class=true
compound="CCOc1cc([C@@H](C)N(CCO[C@@H](C)c2ccccc2)C(=O)NC2(C(=O)O)CC(OCC)C2)cc(OCC)c1C(C)=O (stereo partly drawn)" assigned_class=false
compound="CCOc1cc(C(C)N(CCCCc2ccccc2)C(=O)NC2(CC(=O)O)Cc3ccccc3C2)cc(OCC)c1C (stereo not drawn)" assigned_class=false
compound="CCOc1cc([C@@H](C)N(CCC(F)(F)Cc2ccccc2)C(=O)NC2(C(=O)O)CC(OC)C2)c(Cl)c(OCC)c1C(C)=O (stereo partly drawn) [Example 5-41]" assigned_class=false
compound="C=C(C)c1c(OCC)cc(C(C)N(CCCCc2ccccc2)C(=O)NC2(C(=O)O)CC(F)(F)C2)cc1OCC (stereo not drawn)" assigned_class=true
compound="CCOc1cc([C@@H](C)N(CCOCc2ccccc2)C(=O)NC2CC(C(=O)O)C2)c(Cl)c(OCC)c1C(C)=O (stereo partly drawn)" assigned_class=false
